assayExplanation: chemical genetic growth profiling, strain panel (AID 1159580);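 note: tested at 20 µM; growth read once vehicle control cultures reached saturation at 30 °C; 1 = growth at the plate median or of vehicle wells; lower values mean less growth of the strain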
protocolConditions: S. cerevisiae deletion strains, growth OD, locus YER155C, strain BEM2, stronger effect = lower value
About 2,000 (36%) of roughly 5,500 compounds were called active. Roughly 18% stayed inconclusive and do not appear here. The list shows a part of the results.
Give normalized growth for every item shown.

I have 7 compounds here; please give me normalized growth for each one.
1. CC(C)C(C)/C=C/C(C)[C@H]1CCC2C3=CCC4CC(=O)CC[C@]4(C)C3CC[C@@]21C (stereo not given in full)
2. C=CCSCC1Nc2cc(Cl)c(S(N)(=O)=O)cc2S(=O)(=O)N1 (stereo not given)
3. C[C@@H]1C(=O)OC2[C@H](O)C34[C@@H]5OC(=O)[C@@]3(O[C@@H]3OC(=O)[C@H](O)[C@@]34[C@H](C(C)(C)C)[C@H]5O)[C@]21O (stereo not given in full)
4. C=C1CCC2C(CC2(C)C)C(=O)CCC1O (stereo not given)
5. Oc1ccc(Cl)cc1
6. CC[C@H](C)C(=O)O[C@H]1CCC=C2C=C[C@H](C)C(CCC3C[C@@H](O)CC(=O)O3)[C@H]21 (stereo not given in full)
7. O=C(O)c1ccccc1-c1c2cc(Br)c(=O)cc-2oc2[c]([Hg])c(O)c(Br)cc12

Reply |
1.03 (inactive)
1 (inactive)
1 (inactive)
1 (inactive)
0.987 (inactive)
0.967 (inactive)
1.02 (inactive)
